assayedTarget: MMP-13 (Homo sapiens)
Construct: made in house
testName: In-vitro fluorescence assay of MMP-13 activity
Type: biochemical
statedConditions: recombinant human catalytic domain of MMP-13; read-out: MMP-13 IC50
Entries and their IC50
assayMetric: IC50 (nM)

[[record]]
compound = "Cc1c(C(=O)Nc2ccc(-c3ccc(S(=O)(=O)N(C)[C@H](C(=O)O)C(C)C)cc3)cc2)oc2cccc(C#N)c12"
unitstext = "nM"
value = 41

[[record]]
compound = "CC(C)[C@H](NS(=O)(=O)c1ccc(-c2ccc(NC(=O)c3cc(-c4ccc(Cl)cc4)no3)cc2)cc1)C(=O)O"
unitstext = "nM"
value = 3.1

[[record]]
compound = "CCc1cccc2oc(COc3ccc(-c4ccc(S(=O)(=O)N[C@H](C(=O)O)C(C)C)cc4)cc3)c(C)c12"
unitstext = "nM"
value = 1.2

[[record]]
compound = "CC(C)C(NS(=O)(=O)c1ccc(-c2ccc(NS(=O)(=O)c3cccs3)cc2)cc1)C(=O)O (stereo in doubt)"
unitstext = "nM"
value = 1090


###

assayedTarget: MMP-13 (Homo sapiens)
Construct: made in house
testName: In-vitro fluorescence assay of MMP-13 activity
Format: biochemical
statedConditions: recombinant human catalytic domain of MMP-13; read-out: MMP-13 IC50
Entries and their IC50
assayMetric: IC50

[[record]]
molecule = "COC/C=C\\c1cccc2oc(C(=O)Nc3ccc(-c4ccc(S(=O)(=O)N[C@H](C(=O)O)C(C)C)cc4)cc3)c(C)c12"
value = "0.014 µM"

[[record]]
molecule = "Cc1c(C(=O)Nc2ccc(-c3ccc(S(=O)(=O)N[C@H](C(=O)O)C(C)C)cc3)cc2)oc2cccc(CCCN(C)C)c12"
value = "0.021 µM"

[[record]]
molecule = "C#Cc1cccc2oc(C(=O)Nc3ccc(-c4ccc(S(=O)(=O)N[C@H](C(=O)O)C(C)C)cc4)cc3)c(C)c12"
value = "0.0061 µM"

[[record]]
molecule = "COc1c(Br)ccc2oc(CNc3ccc(-c4ccc(S(=O)(=O)N[C@H](C(=O)O)C(C)C)cc4)cc3)c(C)c12"
value = "0.0081 µM"

[[record]]
molecule = "Cc1c(C(=O)Nc2ccc(-c3ccc(S(=O)(=O)N[C@H](C(=O)O)C(C)C)cc3)cc2)oc2cccc(NS(=O)(=O)C(C)C)c12"
value = "0.016 µM"

[[record]]
molecule = "CC(C)[C@@H](NS(=O)(=O)c1ccc(-c2ccc(C[S+]([O-])c3cc4ccccc4o3)cc2)cc1)C(=O)O (stereo partly drawn)"
value = "0.0012 µM"


###

assayedTarget: MMP-13 (Homo sapiens, UniProt P45452)
Construct: made in house
testName: In-vitro fluorescence assay of MMP-13 activity
Format: biochemical
statedConditions: recombinant human catalytic domain of MMP-13; read-out: MMP-13 IC50
Entries and their IC50
assayMetric: IC50 (nM)

[[record]]
molecule = "CC(C)[C@@H](NS(=O)(=O)c1ccc(-c2ccc(OCc3cc4ccccc4o3)cc2)cc1)C(=O)O [Example 141]"
assaymetric = "IC50"
value = 1.1

[[record]]
molecule = "CC(C)[C@H](NS(=O)(=O)c1ccc(-c2ccc(NC(=O)c3cc4cc(N)ccc4o3)cc2)cc1)C(=O)O [Example 7]"
assaymetric = "IC50"
value = 1.5

[[record]]
molecule = "Cc1cccc2oc(C(=O)Nc3ccc(-c4ccc(S(=O)(=O)N[C@H](C(=O)O)C(C)C)cc4)cc3)nc12 [Example 128]"
assaymetric = "IC50"
value = 2.8

[[record]]
molecule = "COc1cc(OC)c2c(C)c(C(=O)Nc3ccc(-c4ccc(S(=O)(=O)N[C@H](C(=O)O)C(C)C)cc4)cc3)oc2c1C [Example 44]"
assaymetric = "IC50"
value = 286

[[record]]
molecule = "Cc1c(C(=O)Nc2ccc(-c3ccc(S(=O)(=O)N[C@H](C(=O)O)C(C)C)cc3)cc2)oc2cccc(C(C)O)c12 (stereo partly drawn) [Example 95]"
assaymetric = "IC50"
value = 8.4

[[record]]
molecule = "CC(C)[C@H](NS(=O)(=O)c1ccc(-c2ccc(NC(=O)c3cc4c(-c5ccccc5)nn(C)c4s3)cc2)cc1)C(=O)O [Example 167]"
assaymetric = "IC50"
value = 12

[[record]]
molecule = "CC(C)Oc1cccc2oc(C(=O)Nc3ccc(-c4ccc(S(=O)(=O)N[C@H](C(=O)O)C(C)C)cc4)cc3)cc12 [Example 103]"
assaymetric = "IC50"
value = 3.9

[[record]]
molecule = "COC(=O)C(C)(C)Oc1cccc2oc(C(=O)Nc3ccc(-c4ccc(S(=O)(=O)N[C@H](C(=O)O)C(C)C)cc4)cc3)c(C)c12 [Example 156]"
assaymetric = "IC50"
value = 25

[[record]]
molecule = "CC(C)[C@@H](C(=O)O)N(Cc1cccnc1)S(=O)(=O)c1ccc(-c2ccc(NC(=O)c3cc4ccccc4o3)cc2)cc1 [Example 81]"
assaymetric = "IC50"
value = 323

[[record]]
molecule = "COCc1cccc2oc(C(=O)Nc3ccc(-c4ccc(S(=O)(=O)N[C@H](C(=O)O)C(C)C)cc4)cc3)c(C)c12 [Example 100]"
assaymetric = "IC50"
value = 2.6

[[record]]
molecule = "COC(C)c1cccc2oc(C(=O)Nc3ccc(-c4ccc(S(=O)(=O)N[C@H](C(=O)O)C(C)C)cc4)cc3)c(C)c12 (stereo partly drawn) [Example 101]"
assaymetric = "IC50"
value = 5.8

[[record]]
molecule = "COCC#Cc1cccc2oc(C(=O)Nc3ccc(-c4ccc(S(=O)(=O)N[C@H](C(=O)O)C(C)C)cc4)cc3)c(C)c12 [Example 22]"
assaymetric = "IC50"
value = 12

[[record]]
molecule = "Cc1cccc2oc(C(=O)Nc3ccc(-c4ccc(S(=O)(=O)N[C@H](C(=O)O)C(C)C)cc4)cc3)c(C)c12 [Example 93]"
assaymetric = "IC50"
value = 4.8

[[record]]
molecule = "C=Cc1cccc2oc(C(=O)Nc3ccc(-c4ccc(S(=O)(=O)N[C@H](C(=O)O)C(C)C)cc4)cc3)c(C)c12 [Example 96]"
assaymetric = "IC50"
value = 4.4

[[record]]
molecule = "Cc1c(C(=O)Nc2ccc(-c3ccc(S(=O)(=O)N[C@H](C(=O)O)C(C)C)cc3)cc2)oc2cccc(CO)c12 [Example 92]"
assaymetric = "IC50"
value = 25

[[record]]
molecule = "CCC(=O)Nc1cccc2oc(C(=O)Nc3ccc(-c4ccc(S(=O)(=O)N[C@H](C(=O)O)C(C)C)cc4)cc3)c(C)c12 [Example 49]"
assaymetric = "IC50"
value = 35

[[record]]
molecule = "Cc1c(C(=O)Nc2ccc(-c3ccc(S(=O)(=O)N[C@H](C(=O)O)C(C)C)cc3)cc2)oc2cccc(N(C)S(C)(=O)=O)c12 [Example 37]"
assaymetric = "IC50"
value = 16

[[record]]
molecule = "Cc1c(C(=O)Nc2ccc(-c3ccc(S(=O)(=O)N[C@@H](C(=O)O)C(C)C)cc3)cc2)oc2cccc(NS(C)(=O)=O)c12 [Example 41]"
assaymetric = "IC50"
value = 8.5

[[record]]
molecule = "Cc1c(C(=O)Nc2ccc(-c3ccc(S(=O)(=O)N[C@@H](C(=O)O)C(C)C)cc3)cc2)oc2ccccc12 [Example 74]"
assaymetric = "IC50"
value = 13

[[record]]
molecule = "CC(C)[C@@H](NS(=O)(=O)c1ccc(-c2ccc(CS(=O)(=O)c3cc4ccccc4o3)cc2)cc1)C(=O)O [Example 164]"
assaymetric = "IC50"
value = 1.1

[[record]]
molecule = "Cc1c(C(=O)Nc2ccc(-c3ccc(S(=O)(=O)N[C@H](C(=O)O)C(C)C)cc3)cc2)oc2cccc(CCC3CC3)c12 [Example 24]"
assaymetric = "IC50"
value = 24

[[record]]
molecule = "CCOc1cccc2oc(C(=O)Nc3ccc(-c4ccc(S(=O)(=O)N[C@H](C(=O)O)C(C)C)cc4)cc3)c(C)c12 [Example 106]"
assaymetric = "IC50"
value = 7.4

[[record]]
molecule = "CC(C)[C@H](NS(=O)(=O)c1ccc(-c2ccc(NC(=O)c3nc4cc(Cl)ccc4s3)cc2)cc1)C(=O)O [Example 130]"
assaymetric = "IC50"
value = 2

[[record]]
molecule = "COCCCc1cccc2oc(COc3ccc(-c4ccc(S(=O)(=O)N[C@H](C(=O)O)C(C)C)cc4)cc3)c(C)c12 [Example 147]"
assaymetric = "IC50"
value = 1.9

[[record]]
molecule = "COCCc1cccc2oc(C(=O)Nc3ccc(-c4ccc(S(=O)(=O)N[C@H](C(=O)O)C(C)C)cc4)cc3)c(C)c12 [Example 102]"
assaymetric = "IC50"
value = 5.7

[[record]]
molecule = "CN(CC(=O)O)S(=O)(=O)c1ccc(-c2ccc(NC(=O)c3cc4ccccc4o3)cc2)cc1 [Example 79]"
assaymetric = "IC50"
value = 40

[[record]]
molecule = "COCCCc1cccc2oc(C(=O)Nc3ccc(-c4ccc(S(=O)(=O)N[C@H](C(=O)O)C(C)C)cc4)cc3)c(C)c12 [Example 30]"
assaymetric = "IC50"
value = 11

